assay: chemical genetic growth profiling, strain panel (AID 1159580);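 also: tested at 20 µM; growth read once vehicle control cultures reached saturation at 30 °C; 1 = growth at the plate median or of vehicle wells; lower values mean less growth of the strain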; settings: S. cerevisiae deletion strains, growth OD, locus YBR279W, strain paf1, hits give low values
Screen size: about 5,500 compounds; about 2,000 (36%) were called active. Inconclusive results (about 18%) are left out. Some of the results follow.
normalized growth values for the compounds below.

{"columns": ["compound", "normalized growth"],
 "data": [
  ["C[C@@H]1CC2C3CCC4=CC(=O)C=C[C@]4(C)[C@@]3(F)[C@@H](O)C[C@]2(C)[C@H]1C(=O)CO (stereo partly specified)", "0.997 (inactive)"],
  ["O=C(O)CCC(=O)Nc1ccc(S(=O)(=O)Nc2nccs2)cc1", "0.989 (inactive)"],
  ["O=c1cc(-c2cc(O)c(O)c(O)c2)oc2cc(O)cc(O)c12", "0.935 (inactive)"],
  ["CCOC(=O)[C@H](CCc1ccccc1)N[C@@H](C)C(=O)N1Cc2ccccc2C[C@H]1C(=O)O", "0.98 (inactive)"],
  ["COc1cc(OC)c(OC)cc1C=O", "0.997 (inactive)"],
  ["NC(N)=O", "1.01 (inactive)"]
]}
